Source listed as paper PMC7024302.

Experiment: Determination of peptide hydrophobicity with RP-HPLC (adjusted retention time)
Assay type: physicochemical
Conditions: tR’ of the lipopeptide minus tR’ of C10-RR-NH2 or C12-RR-NH2; same RP-HPLC conditions
Residues, ends and D or L forms follow the SMILES beside them.
Reported ∆tR is given for each of the following molecules.
metric: ∆tR (min)

- molecule: "CCCCCCCCCC(=O)N[C@@H](CCCNC(=N)N)C(=O)N[C@@H](Cc1ccccc1)C(=O)N[C@@H](CCCNC(=N)N)C(N)=O [compound 106, C10-RFR-NH2] (HELM PEPTIDE1{[CCCCCCCCCC(=O)[*:2]].R.F.R.[am]}$$$$V2.0)"
  unit.string: "min"
  value.measured: 7.14
- molecule: "CCCCCCCCCCCC(=O)N[C@@H](CCCNC(=N)N)C(=O)N[C@@H](Cc1ccccc1)C(=O)N[C@@H](CCCNC(=N)N)C(N)=O [compound 107, C12-RFR-NH2] (HELM PEPTIDE1{[CCCCCCCCCCCC(=O)[*:2]].R.F.R.[am]}$$$$V2.0)"
  unit.string: "min"
  value.measured: 6.09
- molecule: "CCCCCCCCCC(=O)N[C@@H](CCCNC(=N)N)C(=O)N[C@@H](CCCNC(=N)N)C(=O)N[C@@H](Cc1ccccc1)C(N)=O [compound 108, C10-RRF-NH2] (HELM PEPTIDE1{[CCCCCCCCCC(=O)[*:2]].R.R.F.[am]}$$$$V2.0)"
  unit.string: "min"
  value.measured: 6.77
- molecule: "CCCCCCCCCCCC(=O)N[C@@H](Cc1ccccc1)C(=O)N[C@@H](CCCNC(=N)N)C(=O)N[C@@H](CCCNC(=N)N)C(N)=O [compound 25, C12-FRR-NH2] (HELM PEPTIDE1{[CCCCCCCCCCCC(=O)[*:2]].F.R.R.[am]}$$$$V2.0)"
  unit.string: "min"
  value.measured: 8.87
- molecule: "CCCCCCCCCC(=O)N[C@@H](Cc1ccccc1)C(=O)N[C@@H](CCCNC(=N)N)C(=O)N[C@@H](CCCNC(=N)N)C(N)=O [compound 24, C10-FRR-NH2] (HELM PEPTIDE1{[CCCCCCCCCC(=O)[*:2]].F.R.R.[am]}$$$$V2.0)"
  unit.string: "min"
  value.measured: 10.38
- molecule: "CCCCCCCCCCCC(=O)N[C@@H](CCCNC(=N)N)C(=O)N[C@@H](CCCNC(=N)N)C(=O)N[C@@H](Cc1ccccc1)C(N)=O [compound 109, C12-RRF-NH2] (HELM PEPTIDE1{[CCCCCCCCCCCC(=O)[*:2]].R.R.F.[am]}$$$$V2.0)"
  unit.string: "min"
  value.measured: 5.44
